Item-by-item account of inhibition at […], 10 µM
Target: UniProt P25100
Sequence (P25100 whole entry): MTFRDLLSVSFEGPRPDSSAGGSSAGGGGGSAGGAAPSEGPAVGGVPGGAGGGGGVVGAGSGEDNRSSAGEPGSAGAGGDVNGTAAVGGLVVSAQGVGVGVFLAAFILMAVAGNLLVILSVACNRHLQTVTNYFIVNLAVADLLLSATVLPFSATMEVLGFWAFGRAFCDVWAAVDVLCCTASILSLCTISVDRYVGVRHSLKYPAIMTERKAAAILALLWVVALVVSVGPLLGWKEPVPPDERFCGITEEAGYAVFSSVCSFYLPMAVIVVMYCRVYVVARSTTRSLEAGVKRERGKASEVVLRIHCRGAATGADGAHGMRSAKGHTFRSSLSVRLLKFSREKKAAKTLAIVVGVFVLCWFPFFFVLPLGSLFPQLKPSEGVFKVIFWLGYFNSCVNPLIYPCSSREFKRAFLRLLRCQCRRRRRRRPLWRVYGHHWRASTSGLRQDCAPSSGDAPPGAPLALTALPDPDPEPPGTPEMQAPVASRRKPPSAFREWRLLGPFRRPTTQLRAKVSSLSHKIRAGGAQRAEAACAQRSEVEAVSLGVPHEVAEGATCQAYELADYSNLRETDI
Assay: Displacement of [3H]-prazosin from recombinant human alpha1D adrenergic receptor at 10 uM measured after 90 mins by microbeta scintillation counting method relative to control
Conditions: probe [3H]-prazosin

1. CCCN(CC[C@]1(O)C[C@H](NC(=O)c2ccc3ccccc3c2)C1)[C@H]1CCc2nc(N)sc2C1 : > 50%

-- ask inhibition at […], 10 µM for CCCN[C@H]1CCc2nc(N)sc2C1 [PRAMIPEXOLE] ?
-- reply < 50%

====

Target: UniProtKB P14416
Assay: Antagonist activity at human D2R expressed in CHOK1 cells assessed as inhibition of dopamine-induced beta-arrestin recruitment measured after 120 mins by beta-galactosidase based PathHunter assay
Format: cell-based
Settings: read-out: IC50
pIC50: −log10 of the molar value.
RESULT_TYPE: pIC50

Before answering, review these 2 worked examples.
1. CSc1ccc(OCCN2CCN(C(=O)c3cc4ccccc4[nH]3)CC2)cc1 : < 4.00
2. COc1ccc(C(=O)N2CCN(CCOc3ccc(Cl)cc3)CC2)cc1 : < 5.00

-- ask pIC50 for O=C(c1cc2ccccc2[nH]1)N1CCN(CCOc2ccc(OC(F)(F)F)cc2)CC1 ?
-- reply < 4.00

====

Target: sigma 2 receptor (Homo sapiens, UniProt Q5BJF2)
Sequence (Q5BJF2 whole entry): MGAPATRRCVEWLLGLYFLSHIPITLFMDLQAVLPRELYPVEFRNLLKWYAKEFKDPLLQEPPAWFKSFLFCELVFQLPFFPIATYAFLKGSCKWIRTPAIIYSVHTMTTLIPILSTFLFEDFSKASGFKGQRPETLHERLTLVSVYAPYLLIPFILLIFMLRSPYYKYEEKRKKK
Assay: Displacement of [3H]-DTG from sigma 2 receptor (unknown origin) at 10 uM measured after 90 mins by microbeta counting analysis relative to control
Conditions: probe [3H]-DTG
RESULT_TYPE: inhibition at […], 10 µM

1. CCCN[C@H]1CCc2nc(N)sc2C1 [PRAMIPEXOLE] : < 50%

Turning to the following compound.
-- ask inhibition at […], 10 µM for CCCN(CC[C@]1(O)C[C@H](NC(=O)c2ccc3ccccc3c2)C1)[C@H]1CCc2nc(N)sc2C1 ?
-- reply < 50%

====

Target: dopamine D2 receptor (Homo sapiens, UniProt P14416)
Sequence (P14416 whole entry): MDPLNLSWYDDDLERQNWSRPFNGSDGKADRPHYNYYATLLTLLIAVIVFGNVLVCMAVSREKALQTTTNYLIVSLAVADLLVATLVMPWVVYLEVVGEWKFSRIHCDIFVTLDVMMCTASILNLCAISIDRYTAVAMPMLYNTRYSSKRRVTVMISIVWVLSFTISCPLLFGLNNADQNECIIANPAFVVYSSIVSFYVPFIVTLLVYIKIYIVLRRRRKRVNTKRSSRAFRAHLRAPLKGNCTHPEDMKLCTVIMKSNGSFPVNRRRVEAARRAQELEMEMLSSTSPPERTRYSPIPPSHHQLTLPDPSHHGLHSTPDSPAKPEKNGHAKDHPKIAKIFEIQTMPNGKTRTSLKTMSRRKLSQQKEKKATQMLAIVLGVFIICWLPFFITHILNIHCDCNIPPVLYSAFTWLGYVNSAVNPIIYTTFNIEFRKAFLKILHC
Assay: Displacement of [3H]-N-methylspiperone from recombinant human D2 receptor stably expressed in fibroblast cell membranes at 10 uM measured after 90 mins by microbeta scintillation counting method relative to control
Conditions: probe [3H]-N-methylspiperone
RESULT_TYPE: inhibition at […], 10 µM

1. CCCN[C@H]1CCc2nc(N)sc2C1 [PRAMIPEXOLE] : > 50%

-- ask // fetch dopamine D2 receptor (Homo sapiens, UniProt P14416) inhibition at […], 10 µM for CCCN(CC[C@]1(O)C[C@H](NC(=O)c2ccc3ccccc3c2)C1)[C@H]1CCc2nc(N)sc2C1
-- reply > 50%

====

Biological target: Histamine H2 receptor (Homo sapiens, UniProt P25021)
Sequence (P25021 whole entry): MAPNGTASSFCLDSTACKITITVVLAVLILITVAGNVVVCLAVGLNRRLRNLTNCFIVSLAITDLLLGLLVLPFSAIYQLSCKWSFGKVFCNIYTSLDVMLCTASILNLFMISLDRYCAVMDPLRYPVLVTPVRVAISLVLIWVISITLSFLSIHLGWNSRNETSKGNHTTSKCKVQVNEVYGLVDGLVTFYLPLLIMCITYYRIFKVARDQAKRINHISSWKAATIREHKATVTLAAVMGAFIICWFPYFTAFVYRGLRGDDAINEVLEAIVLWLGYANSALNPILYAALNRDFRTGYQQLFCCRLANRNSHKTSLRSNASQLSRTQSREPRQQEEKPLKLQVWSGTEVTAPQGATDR
Test: Displacement of [125I]-Iodo-aminopotentidine from human histamine H2 receptor expressed in stable HEK cell membranes at 10 uM after 90 mins by microbeta scintillation counting method relative to control
Details: probe [125I]-Iodo-aminopotentidine
Item-by-item account of inhibition at […], 10 µM

1) CCCN[C@H]1CCc2nc(N)sc2C1 [PRAMIPEXOLE] : > 50%

Turning to the following compound.
-- ask inhibition at […], 10 µM for CCCN(CC[C@]1(O)C[C@H](NC(=O)c2ccc3ccccc3c2)C1)[C@H]1CCc2nc(N)sc2C1 ?
-- reply > 50%

====

Target protein (sequence): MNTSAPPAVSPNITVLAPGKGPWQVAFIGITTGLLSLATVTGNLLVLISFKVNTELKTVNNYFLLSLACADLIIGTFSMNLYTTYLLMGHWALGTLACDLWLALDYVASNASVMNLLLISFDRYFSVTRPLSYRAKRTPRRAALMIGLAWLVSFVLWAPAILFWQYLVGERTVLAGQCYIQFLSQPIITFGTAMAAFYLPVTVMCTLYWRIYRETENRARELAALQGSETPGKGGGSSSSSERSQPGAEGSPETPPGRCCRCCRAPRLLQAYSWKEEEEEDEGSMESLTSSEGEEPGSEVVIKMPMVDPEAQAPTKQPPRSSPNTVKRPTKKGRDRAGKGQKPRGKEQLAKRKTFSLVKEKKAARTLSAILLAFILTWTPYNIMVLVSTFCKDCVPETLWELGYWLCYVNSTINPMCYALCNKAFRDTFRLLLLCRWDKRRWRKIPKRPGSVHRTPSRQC
pKi: −log10 of the molar value.
RESULT_TYPE: pKi

-- ask pKi for CCCN[C@H]1CCc2nc(N)sc2C1 [PRAMIPEXOLE] ?
-- reply < 5.00

====

Molecular target: muscarinic M5 receptor (Homo sapiens)
Sequence (P08912 whole entry): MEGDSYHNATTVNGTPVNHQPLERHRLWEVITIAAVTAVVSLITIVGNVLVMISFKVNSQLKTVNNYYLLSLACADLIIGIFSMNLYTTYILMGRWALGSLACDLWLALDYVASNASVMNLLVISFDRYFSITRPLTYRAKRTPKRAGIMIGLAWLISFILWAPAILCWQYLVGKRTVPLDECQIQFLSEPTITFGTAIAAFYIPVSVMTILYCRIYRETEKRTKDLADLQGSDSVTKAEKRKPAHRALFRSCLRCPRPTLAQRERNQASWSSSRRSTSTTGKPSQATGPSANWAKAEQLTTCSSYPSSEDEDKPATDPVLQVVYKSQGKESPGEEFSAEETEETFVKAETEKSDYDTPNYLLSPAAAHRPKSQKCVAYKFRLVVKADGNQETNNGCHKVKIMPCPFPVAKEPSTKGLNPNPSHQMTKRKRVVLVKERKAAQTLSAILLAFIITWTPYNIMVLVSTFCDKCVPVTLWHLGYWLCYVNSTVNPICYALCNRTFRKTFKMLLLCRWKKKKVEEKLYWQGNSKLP
Experiment: Displacement of [3H]-QNB/[3H]-NMS from human muscarinic M5 receptor expressed in stable CHO cell membranes at 10 uM after 90 mins by microbeta scintillation counting method relative to control
Details: probe [3H]-QNB/[3H]-NMS
Item-by-item account of inhibition at […], 10 µM

1. CCCN(CC[C@]1(O)C[C@H](NC(=O)c2ccc3ccccc3c2)C1)[C@H]1CCc2nc(N)sc2C1 : > 50%

Turning to the following molecule.
-- ask inhibition at […], 10 µM for CCCN[C@H]1CCc2nc(N)sc2C1 [PRAMIPEXOLE] ?
-- reply < 50%

====

Target: D(3) dopamine receptor (Homo sapiens, UniProt P35462)
Sequence (P35462 whole entry): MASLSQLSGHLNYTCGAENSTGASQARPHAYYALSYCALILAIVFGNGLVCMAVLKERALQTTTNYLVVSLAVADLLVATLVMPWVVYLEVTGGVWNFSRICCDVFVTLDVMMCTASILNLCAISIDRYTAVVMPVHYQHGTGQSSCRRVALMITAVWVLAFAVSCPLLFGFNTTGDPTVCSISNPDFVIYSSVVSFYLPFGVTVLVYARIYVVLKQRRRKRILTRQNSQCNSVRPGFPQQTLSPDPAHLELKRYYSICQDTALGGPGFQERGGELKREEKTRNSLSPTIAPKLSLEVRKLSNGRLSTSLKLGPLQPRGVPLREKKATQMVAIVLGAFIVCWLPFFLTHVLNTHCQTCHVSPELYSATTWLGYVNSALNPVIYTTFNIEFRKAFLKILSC
Test: Agonist activity at human D3R expressed in CHOK1 cells assessed as induction of beta-arrestin recruitment measured after 90 mins by beta-galactosidase based PathHunter assay
Format: cell-based
Details: read-out: EC50
RESULT_TYPE: pEC50
# log scale: pEC50 equals minus log10 of the concentration in mol/L

Before answering, review these 5 worked examples.
1. O=C(c1cc2ccccc2o1)N1CCN(CCOc2cccnc2)CC1 : 7.38
2. O=C(c1cc2ccccc2[nH]1)N1CCN(CCOc2ccc3c(c2)OCO3)CC1 : 6.54
3. CCc1ccc(OCCN2CCN(C(=O)c3ccc(OC)cc3)CC2)cc1 : 5.59
4. COc1ccc(OCCN2CCN(C(=O)c3cc4cc(OC)ccc4[nH]3)CC2)cc1 : 6.28
5. COc1ccc(OCCN2CCN(C(=O)c3cccc(OC)c3)CC2)cc1 : 6.26

-- ask // fetch D(3) dopamine receptor (Homo sapiens, UniProt P35462) pEC50 for O=C(c1cc2ccccc2[nH]1)N1CCN(CCOc2ccc3[nH]ccc3c2)CC1
-- reply 7.22

-- ask // fetch D(3) dopamine receptor (Homo sapiens, UniProt P35462) pEC50 for COc1ccc(OCCN2CCN(C(=O)c3cc4cccc(C)c4[nH]3)CC2)cc1
-- reply 6.33

-- ask // fetch D(3) dopamine receptor (Homo sapiens, UniProt P35462) pEC50 for COc1ccc(C(=O)N2CCN(CCOc3cccnc3)CC2)cc1
-- reply 7.77

-- ask // fetch D(3) dopamine receptor (Homo sapiens, UniProt P35462) pEC50 for O=C(c1cc2ccccc2[nH]1)N1CCN(CCOc2ccc(F)cc2)CC1
-- reply 6.90

-- ask // fetch D(3) dopamine receptor (Homo sapiens, UniProt P35462) pEC50 for COc1ccc(OCCN2CCN(C(=O)c3ccc(OC)cc3)CC2C)cc1 (stereo unspecified)
-- reply 5.36

====

Molecular target: dopamine D4 receptor (Homo sapiens, UniProt P21917)
Sequence (P21917 whole entry): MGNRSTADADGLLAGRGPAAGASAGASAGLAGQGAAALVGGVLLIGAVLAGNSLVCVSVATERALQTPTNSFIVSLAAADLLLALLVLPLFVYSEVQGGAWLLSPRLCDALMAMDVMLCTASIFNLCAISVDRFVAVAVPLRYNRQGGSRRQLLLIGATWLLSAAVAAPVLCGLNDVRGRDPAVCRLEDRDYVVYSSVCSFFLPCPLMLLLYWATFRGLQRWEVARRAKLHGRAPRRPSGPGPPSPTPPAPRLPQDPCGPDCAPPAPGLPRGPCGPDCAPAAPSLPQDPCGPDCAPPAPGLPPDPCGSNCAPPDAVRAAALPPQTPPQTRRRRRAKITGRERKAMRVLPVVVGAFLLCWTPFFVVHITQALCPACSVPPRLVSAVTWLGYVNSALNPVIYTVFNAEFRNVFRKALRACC
Experiment: Displacement of [3H]-N-methylspiperone from recombinant human D4 receptor stably expressed in HEK cell membranes at 10 uM measured after 90 mins by microbeta scintillation counting method relative to control
Settings: probe [3H]-N-methylspiperone
RESULT_TYPE: inhibition at […], 10 µM

-- ask inhibition at […], 10 µM for CCCN(CC[C@]1(O)C[C@H](NC(=O)c2ccc3ccccc3c2)C1)[C@H]1CCc2nc(N)sc2C1 ?
-- reply > 50%

-- ask inhibition at […], 10 µM for CCCN[C@H]1CCc2nc(N)sc2C1 [PRAMIPEXOLE] ?
-- reply > 50%

====

Item-by-item account of IC50
Molecular target: D(2) dopamine receptor (Homo sapiens, UniProt P14416)
Sequence (P14416 whole entry): as the sequence (P14416 whole entry) above
Assay: Antagonist activity at human D2R expressed in CHOK1 cells assessed as inhibition of dopamine-induced beta-arrestin recruitment measured after 120 mins by beta-galactosidase based PathHunter assay
Type: cell-based
Conditions: read-out: IC50

Before answering, review these 6 worked examples.
1. O=C(c1cc2ccccc2[nH]1)N1CCN(CCOc2ccncc2)CC1 : > 100 µM
2. COc1ccc(OCCN2CCN(C(=O)c3ccc(Cl)cc3)CC2)cc1 : 9 µM
3. COc1ccc(OCCN2CCN(C(=O)c3ccc(OC)cc3)C(C)C2)cc1 (stereo unspecified) : > 100 µM
4. Cc1ccc(OCCN2CCN(C(=O)c3cc4ccccc4[nH]3)CC2)cc1C : 13 µM
5. COc1ccc(OCCN2CCN(C(=O)C3CCCCC3)CC2)cc1 : > 50 µM
6. COc1ccc(OCCN2CCN(C(=O)c3cc4cc(OC)ccc4[nH]3)CC2)cc1 : > 100 µM

-- ask // fetch D(2) dopamine receptor (Homo sapiens, UniProt P14416) IC50 for COc1ccc(OCCN2CCN(C(=O)c3cc4ccccc4[nH]3)CC2)c(Cl)c1
-- reply > 10 µM

-- ask // fetch D(2) dopamine receptor (Homo sapiens, UniProt P14416) IC50 for CCc1ccc(C(=O)N2CCN(CCOc3ccc(OC)cc3)CC2)cc1
-- reply 6 µM

-- ask // fetch D(2) dopamine receptor (Homo sapiens, UniProt P14416) IC50 for COc1ccc(OCCN2CCN(c3ccc(OC)cc3)CC2)cc1
-- reply > 50 µM

-- ask // fetch D(2) dopamine receptor (Homo sapiens, UniProt P14416) IC50 for O=C(c1cc2ccccc2[nH]1)N1CCN(CCOc2ccccn2)CC1
-- reply > 100 µM

-- ask // fetch D(2) dopamine receptor (Homo sapiens, UniProt P14416) IC50 for COc1ccc(C(=O)N2CCN(CCOc3cccnc3)CC2)c(C)c1
-- reply > 100 µM
